tested.on: Estrogen receptor beta (Homo sapiens)
experimental.details: inhibitors of ERβ-SRC1 coactivator interaction, primary screen, biochemical, TR-FRET, ERβ LBD, SRC-1 peptide (AID 633)
experimental.conditions: TR-FRET ER-beta LBD / SRC1-Cy5 peptide binding; at 25.6 µM; receptor agonist-loaded with 1 µM estradiol
About 1,100 (1.3%) of roughly 86,000 compounds were called active.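 Rule for the calls: active = compounds whose percent inhibition of the receptor-coactivator binding signal exceeds about 50% in the single-dose screen (limit read from the data); inactive = the rest.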 This excerpt belongs to a sample that is enriched for actives.
Outcomes: active, inactive

compound: COc1cc(S(=O)(=O)N(Cc2cccs2)C2CC2)ccc1-n1cnnn1
discrete.label: inactive

compound: COc1ccc(-c2noc(-c3ccc(C)cc3)n2)cc1
discrete.label: inactive

compound: Cc1nc2ccc(C(=O)O)cc2[nH]1
discrete.label: active

compound: Cc1cccc(-c2noc(-c3ccc(F)cc3)n2)c1
discrete.label: inactive

compound: C=C(C)CNC(=S)/N=c1\scc(C)n1CC
discrete.label: active

compound: COc1ccc(NC(=O)CCN2CCCC2)c(OC)c1
discrete.label: inactive

compound: Cc1nnc(SC(C)C(=O)Nc2ccc(S(=O)(=O)NC3CCCCC3)cc2)s1 (stereo not drawn)
discrete.label: inactive

compound: CC(C)c1nc2ccc(C(=O)O)cc2[nH]1
discrete.label: inactive
